Target: feline FcRn complex (FcRn-α subunit and β-microglobulin), biotin labeled (feline)
Experiment: SPR, pH 6
Reported pKd is given for each of the following binders.
Just the number, please; pKd means minus log10 of the concentration in mol/L.

{"Binder": "feline IgG1a S252Y/S434F (antibody, part only; not given: Variable domains, not shown: another chain or arm of the molecule) constant: ASTTAPSVFPLAPSCGTTSGATVALACLVLGYFPEPVTVSWNSGALTSGVHTFPAVLQASGLYSLSSMVTVPSSRWLSDTFTCNVAHPPSNTKVDKTVRKTDHPPGPKPCDCPKCPPPEMLGGPSIFIFPPKPKDTLYISRTPEVTCLVVDLGPDDSDVQITWFVDNTQVYTAKTSPREEQFNSTYRVVSVLPILHQDWLKGKEFKCKVNSKSLPSPIERTISKAKGQPHEPQVYVLPPAQEELSRNKVSVTCLIKSFHPPDIAVEWEITGQPEPENNYRTTPPQLDSDGTYFVYSKLSVDRSHWQRGNTYTCSVSHEALHFHHTQKSLTQSPGK", "pKd": 5.71}

[ask] Entry under review: feline IgG1a S252M/S428M/S434N (antibody, part only; not given: Variable domains, not shown: another chain or arm of the molecule) constant: ASTTAPSVFPLAPSCGTTSGATVALACLVLGYFPEPVTVSWNSGALTSGVHTFPAVLQASGLYSLSSMVTVPSSRWLSDTFTCNVAHPPSNTKVDKTVRKTDHPPGPKPCDCPKCPPPEMLGGPSIFIFPPKPKDTLMISRTPEVTCLVVDLGPDDSDVQITWFVDNTQVYTAKTSPREEQFNSTYRVVSVLPILHQDWLKGKEFKCKVNSKSLPSPIERTISKAKGQPHEPQVYVLPPAQEELSRNKVSVTCLIKSFHPPDIAVEWEITGQPEPENNYRTTPPQLDSDGTYFVYSKLSVDRSHWQRGNTYTCSVMHEALHNHHTQKSLTQSPGK . Reported pKd?
[reply] 8.07
